assayRemarks: Ex vivo biodistribution study in naïve adult CD1 mice
recordedConditions: CD1, mouse, kidney, iv, 0.04 ug, total radioactivity; female mice, 60 min post-injection; read-out: Retention in kidneys
assayReadout: tissue uptake at 1 h (%ID/g)
Lab book: enter the figure in %ID/g, no units written.

Reported tissue uptake at 1 h, compound CCCC[C@H](NC(=O)[C@H](Cc1c[nH]c2ccccc12)NC(=O)CNC(=O)[C@H](Cc1ccc(O)cc1)NC(=O)[C@H](C)NC(=O)[C@@H](CCC(=O)O)NC(=O)[C@@H](CCC(=O)O)NC(=O)[C@@H](CCC(=O)O)NC(=O)[C@@H](CCC(=O)O)NC(=O)[C@@H](CCC(=O)O)NC(=O)[C@@H](CCC(=O)O)NC(=O)CN1CCN(CC(=O)O)CCN(CC(=O)O)CCN(CC(=O)O)CC1)C(=O)N[C@@H](CC(=O)O)C(=O)N[C@@H](Cc1ccccc1)C(N)=O [^68Ga-PPF11N, metal not drawn] : ____
2.98

----------
assayRemarks: Ex vivo biodistribution study in naïve adult CD1 mice
recordedConditions: CD1, mouse, muscle, iv, 0.04 ug, total radioactivity; female mice, 60 min post-injection; read-out: Activity concentration in muscle
assayReadout: tissue uptake at 1 h (%ID/g)
Output spec: scalar in %ID/g, unitless text.

Fill in: tissue uptake at 1 h of CCCC[C@H](NC(=O)[C@H](Cc1c[nH]c2ccccc12)NC(=O)CNC(=O)[C@H](Cc1ccc(O)cc1)NC(=O)[C@H](C)NC(=O)[C@@H](CCC(=O)O)NC(=O)[C@@H](CCC(=O)O)NC(=O)[C@@H](CCC(=O)O)NC(=O)[C@@H](CCC(=O)O)NC(=O)[C@@H](CCC(=O)O)NC(=O)[C@@H](CCC(=O)O)NC(=O)CN1CCN(CC(=O)O)CCN(CC(=O)O)CCN(CC(=O)O)CC1)C(=O)N[C@@H](CC(=O)O)C(=O)N[C@@H](Cc1ccccc1)C(N)=O [^68Ga-PPF11N, metal not drawn] is ___
0.16

----------
assayRemarks: Ex vivo biodistribution study in naïve adult CD1 mice
recordedConditions: CD1, mouse, blood, iv, 0.04 ug, total radioactivity; male mice, 60 min post-injection, i.v., 0.04 μg peptide; read-out: Blood concentration
assayReadout: tissue uptake at 1 h (%ID/g)
# value in %ID/g; strip the unit string

Which value of tissue uptake at 1 h has been reported for CCCC[C@H](NC(=O)[C@H](Cc1c[nH]c2ccccc12)NC(=O)CNC(=O)[C@H](Cc1ccc(O)cc1)NC(=O)[C@H](C)NC(=O)[C@@H](CCC(=O)O)NC(=O)[C@@H](CCC(=O)O)NC(=O)[C@@H](CCC(=O)O)NC(=O)[C@@H](CCC(=O)O)NC(=O)[C@@H](CCC(=O)O)NC(=O)[C@@H](CCC(=O)O)NC(=O)CN1CCN(CC(=O)O)CCN(CC(=O)O)CCN(CC(=O)O)CC1)C(=O)N[C@@H](CC(=O)O)C(=O)N[C@@H](Cc1ccccc1)C(N)=O [^68Ga-PPF11N, metal not drawn] in the records?
0.46

----------
assayRemarks: Ex vivo biodistribution study in naïve adult CD1 mice
recordedConditions: CD1, mouse, muscle, iv, 0.04 ug, total radioactivity; male mice, 60 min post-injection; read-out: Activity concentration in muscle
assayReadout: tissue uptake at 1 h (%ID/g)
Your answer is read as %ID/g, so omit the unit and give the number.

Given the entry CCCC[C@H](NC(=O)[C@H](Cc1c[nH]c2ccccc12)NC(=O)CNC(=O)[C@H](Cc1ccc(O)cc1)NC(=O)[C@H](C)NC(=O)[C@@H](CCC(=O)O)NC(=O)[C@@H](CCC(=O)O)NC(=O)[C@@H](CCC(=O)O)NC(=O)[C@@H](CCC(=O)O)NC(=O)[C@@H](CCC(=O)O)NC(=O)[C@@H](CCC(=O)O)NC(=O)CN1CCN(CC(=O)O)CCN(CC(=O)O)CCN(CC(=O)O)CC1)C(=O)N[C@@H](CC(=O)O)C(=O)N[C@@H](Cc1ccccc1)C(N)=O [^68Ga-PPF11N, metal not drawn] , report its measured tissue uptake at 1 h.
0.1

----------
assayRemarks: Ex vivo biodistribution study in naïve adult CD1 mice
recordedConditions: CD1, mouse, stomach, iv, 0.04 ug, total radioactivity; male mice, 60 min post-injection; read-out: Retention in stomach
assayReadout: tissue uptake at 1 h (%ID/g)
Numeric only. Scale: %ID/g

Item under review: CCCC[C@H](NC(=O)[C@H](Cc1c[nH]c2ccccc12)NC(=O)CNC(=O)[C@H](Cc1ccc(O)cc1)NC(=O)[C@H](C)NC(=O)[C@@H](CCC(=O)O)NC(=O)[C@@H](CCC(=O)O)NC(=O)[C@@H](CCC(=O)O)NC(=O)[C@@H](CCC(=O)O)NC(=O)[C@@H](CCC(=O)O)NC(=O)[C@@H](CCC(=O)O)NC(=O)CN1CCN(CC(=O)O)CCN(CC(=O)O)CCN(CC(=O)O)CC1)C(=O)N[C@@H](CC(=O)O)C(=O)N[C@@H](Cc1ccccc1)C(N)=O [^68Ga-PPF11N, metal not drawn] . Reported tissue uptake at 1 h?
1.93

----------
assayRemarks: Ex vivo biodistribution study in naïve adult CD1 mice
recordedConditions: CD1, mouse, kidney, iv, 0.04 ug, total radioactivity; male mice, 60 min post-injection; read-out: Retention in kidneys
assayReadout: tissue uptake at 1 h (%ID/g)
Use %ID/g as the unit, but write only the number.

So what's the measured tissue uptake at 1 h for this one? CCCC[C@H](NC(=O)[C@H](Cc1c[nH]c2ccccc12)NC(=O)CNC(=O)[C@H](Cc1ccc(O)cc1)NC(=O)[C@H](C)NC(=O)[C@@H](CCC(=O)O)NC(=O)[C@@H](CCC(=O)O)NC(=O)[C@@H](CCC(=O)O)NC(=O)[C@@H](CCC(=O)O)NC(=O)[C@@H](CCC(=O)O)NC(=O)[C@@H](CCC(=O)O)NC(=O)CN1CCN(CC(=O)O)CCN(CC(=O)O)CCN(CC(=O)O)CC1)C(=O)N[C@@H](CC(=O)O)C(=O)N[C@@H](Cc1ccccc1)C(N)=O [^68Ga-PPF11N, metal not drawn]
3.38

----------
System: CCK2R
Construct: from tissue; host or cells: organs of naive CD1 mice (stomach and others), in vivo injection with ex vivo gamma counting
assayRemarks: Peptide blocking experiment (co-injection of blocking dose of PPF11N) in the ex vivo biodistribution study
Parameters: species or system CD1 mice
recordedConditions: CD1, stomach, iv, total radioactivity; female mice, 60 min post-injection, co-injected PPF11N 40 μg per mouse (1.3 mg/kg); read-out: Concentration in the stomach with peptide blocking dose
assayReadout: tissue uptake at 1 h (%ID/g)
Just the number in %ID/g, nothing appended.

tissue uptake at 1 h for CCCC[C@H](NC(=O)[C@H](Cc1c[nH]c2ccccc12)NC(=O)CNC(=O)[C@H](Cc1ccc(O)cc1)NC(=O)[C@H](C)NC(=O)[C@@H](CCC(=O)O)NC(=O)[C@@H](CCC(=O)O)NC(=O)[C@@H](CCC(=O)O)NC(=O)[C@@H](CCC(=O)O)NC(=O)[C@@H](CCC(=O)O)NC(=O)[C@@H](CCC(=O)O)NC(=O)CN1CCN(CC(=O)O)CCN(CC(=O)O)CCN(CC(=O)O)CC1)C(=O)N[C@@H](CC(=O)O)C(=O)N[C@@H](Cc1ccccc1)C(N)=O [^68Ga-PPF11N, metal not drawn] ?
0.19

----------
Test system: CCK2R
Construct: from tissue; host or cells: organs of naive CD1 mice (stomach and others), in vivo injection with ex vivo gamma counting
assayRemarks: Peptide blocking experiment (co-injection of blocking dose of PPF11N) in the ex vivo biodistribution study
Set-up: species or system CD1 mice
recordedConditions: CD1, stomach, iv, total radioactivity; male mice, 60 min post-injection, co-injected PPF11N 40 μg per mouse (1.3 mg/kg); read-out: Concentration in the stomach with peptide blocking dose
assayReadout: tissue uptake at 1 h (%ID/g)
Provide only the numeric value, understood in %ID/g.

Recorded tissue uptake at 1 h of CCCC[C@H](NC(=O)[C@H](Cc1c[nH]c2ccccc12)NC(=O)CNC(=O)[C@H](Cc1ccc(O)cc1)NC(=O)[C@H](C)NC(=O)[C@@H](CCC(=O)O)NC(=O)[C@@H](CCC(=O)O)NC(=O)[C@@H](CCC(=O)O)NC(=O)[C@@H](CCC(=O)O)NC(=O)[C@@H](CCC(=O)O)NC(=O)[C@@H](CCC(=O)O)NC(=O)CN1CCN(CC(=O)O)CCN(CC(=O)O)CCN(CC(=O)O)CC1)C(=O)N[C@@H](CC(=O)O)C(=O)N[C@@H](Cc1ccccc1)C(N)=O [^68Ga-PPF11N, metal not drawn] , please.
0.32

----------
assayRemarks: Ex vivo biodistribution study in naïve adult CD1 mice
recordedConditions: CD1, mouse, stomach, iv, 0.04 ug, total radioactivity; female mice, 60 min post-injection; read-out: Retention in stomach
Procedure: Ex vivo biodistribution study. Female (FIG. 1A) and male (FIG. 1B) naïve adult CD1 mice (immunocompetent) were injected with [^68Ga]Ga-PPF11N ((0.19±0.04) MBq, 0.04 μg, 1.3 μg/kg). Mice were sacrificed at 5, 15, 30, 60, 120 and 240 min post-injection (N=4 each). […] Organs (blood, bone, brain, colon, gonad, kidney, liver, lung, muscle, pancreas, stomach) were weighted and assessed for activity concentration over time. […] The activity of each collected tissue was measured in units of counts per min (CPM). […]
assayReadout: tissue uptake at 1 h (%ID/g)
Respond numerically; units are %ID/g and should not be typed.

Which measured tissue uptake at 1 h value corresponds to CCCC[C@H](NC(=O)[C@H](Cc1c[nH]c2ccccc12)NC(=O)CNC(=O)[C@H](Cc1ccc(O)cc1)NC(=O)[C@H](C)NC(=O)[C@@H](CCC(=O)O)NC(=O)[C@@H](CCC(=O)O)NC(=O)[C@@H](CCC(=O)O)NC(=O)[C@@H](CCC(=O)O)NC(=O)[C@@H](CCC(=O)O)NC(=O)[C@@H](CCC(=O)O)NC(=O)CN1CCN(CC(=O)O)CCN(CC(=O)O)CCN(CC(=O)O)CC1)C(=O)N[C@@H](CC(=O)O)C(=O)N[C@@H](Cc1ccccc1)C(N)=O [^68Ga-PPF11N, metal not drawn] ?
1.71
